Experiment: Solubility of compound at pH 7
Format: physicochemical
Settings: buffer
recorded_metric: solubility (µM)

A selection of reference data follows.
INSERT INTO measurements (molecular_string, recorded_metric, result) VALUES
  ('COc1cc2c(cc1Nc1nccc(Nc3ccccc3)n1)CN(C)CC2', 'solubility', 147),
  ('COc1cc2c(cc1Nc1ncc(C(N)=O)c(Nc3c(C)cccc3F)n1)CN(C)CC2', 'solubility', 9),
  ('COc1cc2c(cc1Nc1ncc(C)c(Nc3ccccc3)n1)CN(C)CC2', 'solubility', 152);

[1] COc1cc2c(cc1Nc1ncc(C(N)=O)c(Nc3ccccc3)n1)CN(C)CC2
[2] COc1cc2c(cc1Nc1ncc(C(N)=O)c(NC3CCCC3)n1)CN(C)CC2
# returns the entry with the larger solubility; inputs 1 and 2 Your answer should be the label of the entry you select.
1

---

Experiment: Oral bioavailability in C57BL/6 mouse at 10 mg/kg
Format: ADME, organism-based
Conditions: in vivo
recorded_metric: bioavailability (%)

INSERT INTO results (molecular_string, units_of_measure, result) VALUES
  ('COc1cc2c(cc1Nc1ncc(C(N)=O)c(Nc3ccccc3[C@H](C)OC)n1)CN(C)CC2', '%', 9),
  ('COc1cc2c(cc1Nc1ncc(C(N)=O)c(Nc3ccccc3)n1)CN(C)CC2', '%', 17);

[I] COc1cc2c(cc1Nc1ncc(C(N)=O)c(Nc3ccccc3CO)n1)CN(C)CC2
[II] COc1cc2c(cc1Nc1ncc(C(N)=O)c(Nc3c(F)cccc3C(F)(F)F)n1)CN(C)CC2
# returns the entry with the larger bioavailability; inputs I and II Your answer should be the label of the entry you select.
II
(II: 13%, I: 7.9%)
